pIC50: −log10 of the molar value.
A set of molecules tested on UniProt:P00642, with measured pIC50:

// solved cases for pIC50 follow
COC(=O)C[C@@](C)(O)CC(=O)O[C@@H]1C[C@]2(C)C3=C(CC[C@H]2C(C)(C)C1=O)[C@]1(C)CC[C@H]([C@H](C)CCC(O)C(C)(C)O)[C@@]1(C)CC3 (stereo partly drawn) ... < 4.30
C=C(CC[C@@H](C)[C@H]1CC=C2C3=C([C@@H](O)[C@H](OC(C)=O)[C@@]21C)[C@@]1(C)C[C@@H](OC(=O)CN)[C@H](OC(=O)CN)C(C)(C)[C@@H]1CC3)C(C)C ... < 4.30

Now for another entry.
Exercise: Provide UniProt:P00642 pIC50 reading for CC(=O)O[C@H]1[C@H](O)C2=C(CC[C@H]3C(C)(C)[C@@H](OS(=O)(=O)O)[C@H](OC(=O)CCCCCCCCCCCCCCCO)C[C@]23C)C2=CC[C@H]([C@H](C)CCC3(C(C)(C)O)CO3)[C@]21C (stereo partly drawn) .
Sequence (P00642 whole entry): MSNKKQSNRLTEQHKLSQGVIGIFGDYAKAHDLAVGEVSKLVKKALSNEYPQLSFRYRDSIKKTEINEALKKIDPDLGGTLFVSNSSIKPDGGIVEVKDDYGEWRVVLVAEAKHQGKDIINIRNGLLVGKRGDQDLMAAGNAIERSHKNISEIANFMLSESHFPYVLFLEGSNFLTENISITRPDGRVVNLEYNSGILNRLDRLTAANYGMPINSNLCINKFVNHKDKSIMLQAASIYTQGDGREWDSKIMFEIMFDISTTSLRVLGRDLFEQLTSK
Key: < 4.30

* * *

Measured IC50 by item
- measurement.target: Human immunodeficiency virus type 1 integrase (Human immunodeficiency virus 1, UniProt Q7ZJM1)
- Sequence (Q7ZJM1 whole entry): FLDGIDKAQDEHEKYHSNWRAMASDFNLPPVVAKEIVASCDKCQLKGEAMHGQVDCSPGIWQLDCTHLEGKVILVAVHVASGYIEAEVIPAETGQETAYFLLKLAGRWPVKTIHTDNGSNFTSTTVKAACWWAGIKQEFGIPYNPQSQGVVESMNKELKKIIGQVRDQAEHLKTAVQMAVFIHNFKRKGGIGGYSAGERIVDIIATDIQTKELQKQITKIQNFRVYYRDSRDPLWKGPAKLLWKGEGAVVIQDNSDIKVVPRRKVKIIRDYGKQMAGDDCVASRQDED
- test: Inhibition of recombinant HIV1 integrase using unprocessed donor DNA by coupled assay

C=C(CC[C@@H](C)[C@H]1CC=C2C3=C([C@@H](O)[C@H](OC(C)=O)[C@@]21C)[C@@]1(C)C[C@@H](OC(=O)CNC(=O)OC(C)(C)C)[C@H](OC(=O)CNC(=O)OC(C)(C)C)C(C)(C)[C@@H]1CC3)C(C)C ... > 50 µM
C[C@H](CCC(O)C(C)(C)O)[C@H]1CC[C@@]2(C)C3=C(CC[C@]12C)[C@@]1(C)C[C@@H](OC(=O)CC(C)(O)CC(=O)O)C(=O)C(C)(C)[C@@H]1CC3 (stereo not given in full) ... 47 µM
C=C(CC[C@@H](C)[C@H]1CC=C2C3=C([C@@H](O)[C@H](OC(C)=O)[C@@]21C)[C@@]1(C)C[C@@H](OC(=O)c2ccccc2)[C@H](OC(=O)c2ccccc2)C(C)(C)[C@@H]1CC3)C(C)C ... > 69 µM
C=C(CC[C@@H](C)[C@H]1C[C@@H](OC)c2c3c(cc(C)c21)[C@@]1(C)C[C@@H](O)[C@H](O)C(C)(C)[C@@H]1CC3)C(C)C ... 50 µM
C=C(CC[C@@H](C)[C@H]1CC=C2C3=C([C@@H](O)[C@H](OC(C)=O)[C@@]21C)[C@@]1(C)C[C@@H](OC(=O)CNC(=O)OC(C)(C)C)[C@H](O)C(C)(C)[C@@H]1CC3)C(C)C ... > 50 µM

Exercise: Hello, please tell me recorded IC50 for this one: C=C(CC[C@@H](C)[C@H]1CC=C2C3=C([C@@H](O)[C@H](OC(C)=O)[C@@]21C)[C@@]1(C)C[C@@H](O)[C@H](OCOC)C(C)(C)[C@@H]1CC3)C(C)C
Key: > 80 µM

* * *

Measured pIC50 by item
- measurement.target: Human immunodeficiency virus type 1 integrase (Human immunodeficiency virus 1, UniProt Q7ZJM1)
- test: Inhibition of recombinant HIV1 integrase using preprocessed donor DNA treated after washing excess enzyme by strand transfer assay
pIC50: −log10 of the molar value.

// solved cases for pIC50 follow
C=C(CC[C@@H](C)[C@H]1C[C@H](OC)c2c3c(cc(C)c21)[C@@]1(C)C[C@@H](O)[C@H](O)C(C)(C)[C@@H]1CC3)C(C)C ... < 4.00
C=C(CC[C@@H](C)[C@H]1CC=C2C3=C([C@@H](O)[C@H](OC(C)=O)[C@@]21C)[C@@]1(C)C[C@@H](O)[C@H](OCOC)C(C)(C)[C@@H]1CC3)C(C)C ... < 4.10
C[C@H](CCC(O)C(C)(C)O)[C@H]1CC[C@@]2(C)C3=C(CC[C@]12C)[C@@]1(C)C[C@@H](OC(=O)CC(C)(O)CC(=O)O)C(=O)C(C)(C)[C@@H]1CC3 (stereo not given in full) [CLAVARIC ACID] ... 4.07
C=C(CC[C@@H](C)[C@H]1CC=C2C3=C([C@@H](O)[C@H](OC(C)=O)[C@@]21C)[C@@]1(C)C[C@@H](OC(=O)CCC(=O)O)[C@H](O)C(C)(C)[C@@H]1CC3)C(C)C ... 4.92
C=C(CC[C@@H](C)[C@H]1CC=C2C3=C([C@@H](O)[C@H](OC(C)=O)[C@@]21C)[C@@]1(C)C[C@@H](O)[C@H](OC(=O)c2ccccc2)C(C)(C)[C@@H]1CC3)C(C)C ... < 4.10

Exercise: Hello, please tell me recorded pIC50 for this one: C=C(CC[C@@H](C)[C@H]1CC=C2C3=C([C@@H](O)[C@H](OC(C)=O)[C@@]21C)[C@@]1(C)C[C@@H](OC(=O)CNC(=O)OCC2c4ccccc4-c4ccccc42)[C@H](O)C(C)(C)[C@@H]1CC3)C(C)C
Key: < 4.30

Exercise: Hello, please tell me recorded pIC50 for this one: C=C(CC[C@@H](C)[C@H]1CC=C2C3=C([C@@H](O)[C@H](OC(C)=O)[C@@]21C)[C@@]1(C)C[C@H]2OC(C)(C)O[C@@H]2C(C)(C)[C@@H]1CC3)C(C)C
Key: < 4.30

Exercise: Hello, please tell me recorded pIC50 for this one: C=C(CC[C@@H](C)[C@H]1CC=C2C3=C([C@@H](O)[C@H](OC(C)=O)[C@@]21C)[C@@]1(C)C[C@@H](OC(=O)CCC(=O)OC)[C@H](O)C(C)(C)[C@@H]1CC3)C(C)C
Key: < 4.30

Exercise: Hello, please tell me recorded pIC50 for this one: C=C(CC[C@@H](C)[C@H]1CC=C2C3=C([C@@H](O)[C@H](OC(C)=O)[C@@]21C)[C@@]1(C)C[C@@H](OCOC)[C@H](O)C(C)(C)[C@@H]1CC3)C(C)C
Key: < 4.10

Exercise: Hello, please tell me recorded pIC50 for this one: C=C(CC[C@@H](C)[C@H]1CC=C2C3=C([C@@H](O)[C@H](OC(C)=O)[C@@]21C)[C@@]1(C)C[C@@H](O)[C@H](O)C(C)(C)[C@@H]1CC3)C(C)C [INTEGRACIDE B]
Key: < 4.00
